Origin of the recorded values: ChEMBL document CHEMBL4406801

Task for the reader: assign each of the following compounds its reported half-life at 1 µM.
Method Notes: Half life in human liver microsomes at 1 uM in presence of NADPH
Type: ADME, Microsome

Bench note: what half-life at 1 µM did NS(=O)(=O)Nc1ccc(C(=O)NC(C(=O)NO)c2ccc(-c3cc(F)c(F)c(F)c3)cc2)cc1 (configuration not stated) show? > 4.17 h

Another compound to look at: CS(=O)(=O)Nc1ccc(C(=O)NC(C(=O)NO)c2ccc(-c3cc(F)c(F)c(F)c3)cc2)cc1 (configuration not stated) > 4.17 h

----------
Method Notes: Intrinsic clearance in mouse liver microsomes assessed per mg protein at 1 uM in presence of NADPH
Type: ADME, Microsome
Measurement Context: read-out: CLH
Recorded Endpoint: microsomal CLint at 1 µM

Bench note: what microsomal CLint at 1 µM did NS(=O)(=O)Nc1ccc(C(=O)NC(C(=O)NO)c2ccc(-c3cc(F)c(F)c(F)c3)cc2)cc1 (configuration not stated) show? < 7 µL/min/mg

Another compound to look at: CS(=O)(=O)Nc1ccc(C(=O)NC(C(=O)NO)c2ccc(-c3cc(F)c(F)c(F)c3)cc2)cc1 (configuration not stated) < 7 µL/min/mg

----------
System: Matrix metalloproteinase-9 (Homo sapiens, UniProt P14780)
Sequence (P14780 whole entry): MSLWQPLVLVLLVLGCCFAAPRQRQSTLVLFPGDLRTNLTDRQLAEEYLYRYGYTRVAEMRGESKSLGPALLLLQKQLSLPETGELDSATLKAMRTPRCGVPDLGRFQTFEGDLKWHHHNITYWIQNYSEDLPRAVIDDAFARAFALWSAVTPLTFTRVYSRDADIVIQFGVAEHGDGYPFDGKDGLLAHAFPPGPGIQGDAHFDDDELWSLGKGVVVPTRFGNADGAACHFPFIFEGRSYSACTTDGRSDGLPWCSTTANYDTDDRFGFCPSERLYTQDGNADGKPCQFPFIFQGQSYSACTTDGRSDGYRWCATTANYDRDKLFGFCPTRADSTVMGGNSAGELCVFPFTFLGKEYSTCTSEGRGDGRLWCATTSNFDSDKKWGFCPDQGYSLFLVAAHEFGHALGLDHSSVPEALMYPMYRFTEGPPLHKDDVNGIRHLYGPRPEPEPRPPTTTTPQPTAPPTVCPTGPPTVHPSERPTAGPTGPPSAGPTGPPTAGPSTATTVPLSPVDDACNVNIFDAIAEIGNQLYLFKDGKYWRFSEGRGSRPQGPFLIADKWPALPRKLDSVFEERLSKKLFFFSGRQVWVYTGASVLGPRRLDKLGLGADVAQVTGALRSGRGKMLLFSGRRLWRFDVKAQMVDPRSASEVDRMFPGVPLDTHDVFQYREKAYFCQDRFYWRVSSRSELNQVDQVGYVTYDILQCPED
Recorded Endpoint: IC50 (nM)
Form entry: value (nM) — number only.

Bench note: what IC50 did CC(C)C[C@@H](C(=O)N[C@H](C(=O)OC1CCCC1)c1ccccc1)[C@H](O)C(=O)NO [TOSEDOSTAT] show? 1500

----------
Task for the reader: assign each of the following molecules its reported solubility kinetic at 0.5 h.
Method Notes: Kinetic solubility of the compound in 0.01 M HCl at pH 2 after 30 mins by nephelometry
Assay type: physicochemical
Measurement Context: read-out: Kinetic_solubility

Bench note: what solubility kinetic at 0.5 h did NS(=O)(=O)Nc1ccc(C(=O)NC(C(=O)NO)c2ccc(-c3cc(F)c(F)c(F)c3)cc2)cc1 (configuration not stated) show? 6.3 to 12.5 µg/mL

Another molecule to look at: CS(=O)(=O)Nc1ccc(C(=O)NC(C(=O)NO)c2ccc(-c3cc(F)c(F)c(F)c3)cc2)cc1 (configuration not stated) 12.5 to 25 µg/mL
